Recorded pKd values for a group of binders are listed next.
target.or.system: mouse recombinant C0-C2 protein, phospho-ablated (mC0-C2^AAA) (mouse) (UniProt O70468)
Sequence (O70468 other isoform, or with tags, fused parts or gaps): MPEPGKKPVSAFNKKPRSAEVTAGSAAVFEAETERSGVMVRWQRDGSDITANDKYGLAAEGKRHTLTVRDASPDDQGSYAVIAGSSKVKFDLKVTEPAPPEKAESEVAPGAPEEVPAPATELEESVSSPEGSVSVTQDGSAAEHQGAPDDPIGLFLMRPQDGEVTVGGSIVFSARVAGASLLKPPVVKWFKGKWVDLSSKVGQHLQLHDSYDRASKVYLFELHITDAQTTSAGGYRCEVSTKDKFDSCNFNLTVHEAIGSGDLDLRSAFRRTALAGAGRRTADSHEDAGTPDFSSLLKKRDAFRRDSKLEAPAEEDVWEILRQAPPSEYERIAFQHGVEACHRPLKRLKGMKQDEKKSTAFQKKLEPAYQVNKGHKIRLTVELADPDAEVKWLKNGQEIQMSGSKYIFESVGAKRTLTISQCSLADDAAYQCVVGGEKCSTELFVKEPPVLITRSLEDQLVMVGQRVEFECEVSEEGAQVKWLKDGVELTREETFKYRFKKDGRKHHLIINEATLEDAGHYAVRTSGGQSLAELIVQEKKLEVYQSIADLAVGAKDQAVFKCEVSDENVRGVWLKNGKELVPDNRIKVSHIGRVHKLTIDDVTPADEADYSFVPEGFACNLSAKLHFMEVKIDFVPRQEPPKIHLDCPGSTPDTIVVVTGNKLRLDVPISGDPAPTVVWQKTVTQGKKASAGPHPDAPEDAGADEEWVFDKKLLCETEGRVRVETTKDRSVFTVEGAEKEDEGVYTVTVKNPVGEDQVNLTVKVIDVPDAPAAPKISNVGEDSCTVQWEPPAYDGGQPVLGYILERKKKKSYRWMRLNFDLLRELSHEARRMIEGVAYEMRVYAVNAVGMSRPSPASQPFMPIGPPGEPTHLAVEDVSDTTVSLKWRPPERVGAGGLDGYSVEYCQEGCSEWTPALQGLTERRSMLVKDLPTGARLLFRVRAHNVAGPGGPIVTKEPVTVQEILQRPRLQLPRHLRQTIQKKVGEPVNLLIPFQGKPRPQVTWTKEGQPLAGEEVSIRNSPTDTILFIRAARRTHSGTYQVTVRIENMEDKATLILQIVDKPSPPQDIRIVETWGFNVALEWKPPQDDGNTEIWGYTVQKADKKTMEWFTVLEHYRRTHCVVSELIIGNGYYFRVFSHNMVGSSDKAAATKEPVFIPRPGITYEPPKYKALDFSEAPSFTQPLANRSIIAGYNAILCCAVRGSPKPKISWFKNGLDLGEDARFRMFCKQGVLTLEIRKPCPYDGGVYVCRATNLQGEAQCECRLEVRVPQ
assay.method.text: solid-phase binding assay (SPBA); 20 μM C0-C2 (bait) adsorbed onto microtiter plates overnight at 4 °C; 0-20 μM recombinant myosin S2 (prey) added; bound S2 detected with polyclonal anti-S2 antibody and Alexa Fluor 568 secondary antibody; intensity normalised to that at maximal S2; one-phase association fit for Bmax and Kd
Please express pKd as -log10 of the molar concentration.

Per the record, human recombinant proximal S2 protein with E924K mutation (hS2^E924K) (domain or fragment, UniProt P12883 838-963, looked up, human β-myosin heavy chain (MYH7), proximal S2, residues 838-963, with the HCM-causing mutation E924K; mutation found in HCM patients, introduced by site-directed mutagenesis; coiled coil in low-salt buffer by CD) PLLKSAEREKEMASMKEEFTRLKEALEKSEARRKELEEKMVSLLQEKNDLQLQVQAEQDNLADAEERCDQLIKNKIQLEAKVKEMNKRLEDEEEMNAELTAKKRKLEDECSELKRDIDDLELTLAK has pKd of 5.83

The reported pKd of the binder human recombinant proximal S2 WT protein (hS2^Wt) (domain or fragment, UniProt P12883 838-963, looked up, pET28a+ vector; also called WT hS2; human cardiac myosin S2) PLLKSAEREKEMASMKEEFTRLKEALEKSEARRKELEEKMVSLLQEKNDLQLQVQAEQDNLADAEERCDQLIKNKIQLEAKVKEMNERLEDEEEMNAELTAKKRKLEDECSELKRDIDDLELTLAK was 5.74

The binder human recombinant proximal S2 protein with E930Δ mutation (hS2^E930Δ) (domain or fragment, UniProt P12883 838-963, looked up, human β-myosin heavy chain (MYH7), proximal S2, residues 838-963, with the HCM-causing deletion of E930; mutation found in HCM patients, introduced by site-directed mutagenesis; coiled coil in low-salt buffer by CD) PLLKSAEREKEMASMKEEFTRLKEALEKSEARRKELEEKMVSLLQEKNDLQLQVQAEQDNLADAEERCDQLIKNKIQLEAKVKEMNERLEDEEMNAELTAKKRKLEDECSELKRDIDDLELTLAK showed pKd equal to 5.91

pKd recorded for this binder, human recombinant proximal S2 protein with R870H mutation (hS2^R870H) (domain or fragment, UniProt P12883 838-963, looked up, human β-myosin heavy chain (MYH7), proximal S2, residues 838-963, with the HCM-causing mutation R870H; mutation found in HCM patients, introduced by site-directed mutagenesis; coiled coil in low-salt buffer by CD) PLLKSAEREKEMASMKEEFTRLKEALEKSEARHKELEEKMVSLLQEKNDLQLQVQAEQDNLADAEERCDQLIKNKIQLEAKVKEMNERLEDEEEMNAELTAKKRKLEDECSELKRDIDDLELTLAK , is 5.82

Source listed as paper PMC8239744.
